System: NCI-H226 lung
Test: NCI-60 one-dose screen, 48 h (100 = growth as untreated, 0 = no growth, -100 = all killed)
Settings: 10 µM unless noted
About 83,000 compounds went through this panel and 20% of them were active in at least one assay; those are over-represented in the sample as a whole.
MEASURED_ATTRIBUTE: growth (%)
The response must be a number in % with no trailing unit.

{"COMPOUND": "CNS(=O)(=O)c1cccc(-c2ccc3c4c(n(C)c(=O)c3c2)-c2ccccc2C4=O)c1", "ENDPOINT_UNIT": "%", "growth": 33.1}
{"COMPOUND": "CN1C(=O)c2cc(Cl)nc3c(NC(=O)c4cccc(Cl)c4)c(Cl)c(NC(=O)c4cccc(Cl)c4)c1c23", "ENDPOINT_UNIT": "%", "growth": 23.6}

# growth lookup, item Cc1nccc2c3ccc(OCc4cn(-c5ccc(Cl)cc5)nn4)cc3n(CC(C)C)c12
42

# growth lookup, item N#Cc1c(-c2ccc(F)cc2)nc(N/N=C/c2cccc(O)c2)nc1N1CCOCC1
100

# growth lookup, item CCN(CC)CC#CCOC(=O)[C@]1(C)CCC[C@]2(C)[C@H]3C[C@H]4C(C(C)C)=C[C@]3(CC[C@H]21)[C@@H]1C(=O)CCC(=O)[C@@H]14
76.2

# growth lookup, item Cc1[nH]c(N=Nc2ccccc2)nc1N=Nc1ccccc1
12.7
